Measured Dmax values are reported for all entries that follow.
Target System: BCL-XL (Homo sapiens)
Construct: endogenous in cells; host or cells: MOLT-4
Sequence (Q07817 whole entry): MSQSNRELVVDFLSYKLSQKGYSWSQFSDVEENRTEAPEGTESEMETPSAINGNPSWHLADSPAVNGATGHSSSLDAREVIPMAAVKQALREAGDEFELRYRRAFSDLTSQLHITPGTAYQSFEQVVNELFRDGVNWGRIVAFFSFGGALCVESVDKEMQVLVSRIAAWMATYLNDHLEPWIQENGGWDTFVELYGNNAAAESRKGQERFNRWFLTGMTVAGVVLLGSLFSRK
Method: Bcl-xL ELISA degradation in MOLT-4 cells, 6 h
Assay type: cell-based

Compound: Cc1ncsc1-c1ccc([C@H](C)NC(=O)[C@@H]2C[C@@H](O)CN2C(=O)[C@@H](NC(=O)CCCCCS(=O)(=O)NC(=O)c2nc(N3CCc4cccc(C(=O)Nc5nc6ccccc6s5)c4C3)ccc2-c2cnn(CC3CCCCC3)c2C)C(C)(C)CCO)cc1 [I-365]
Dmax: > 75%

Now examine the next entry.
What Dmax value was documented for this compound, C#Cc1ccc([C@H](C)NC(=O)[C@@H]2C[C@@H](O)CN2C(=O)[C@@H](NC(=O)CCCCCS(=O)(=O)NC(=O)c2nc(N(C)c3cc(C)c(Nc4nc5ccccc5s4)nn3)ccc2-c2cnn(CC34CC5CC(CC(C5)C3)C4)c2C)C(C)(C)C)c(OCCO)c1 [I-477] ?
> 75%
